- Test system: YST-1
- Method Description: relative IC50 (inflection point of fitted dose-response curve, CellTiter-Glo viability, 72 h; top asymptote may be below 50% inhibition); higher = less potent
Property: relative IC50 (nM)
Give the number; nM is assumed, so skip it.

Item `CCN1CCN(Cc2ccc(Nc3ncc(F)c(-c4cc(F)c5nc(C)n(C(C)C)c5c4)n3)nc2)CC1` has what recorded relative IC50?
27.5

Would you mind doing `Cc1ccc(-n2nc(C(C)(C)C)cc2NC(=O)Nc2ccc(OCCN3CCOCC3)c3ccccc23)cc1` as well?
667

Would you mind doing `C/C=C1\NC(=O)[C@H]2CSSCC/C=C/[C@H](CC(=O)N[C@H](C(C)C)C(=O)N2)OC(=O)[C@H](C(C)C)NC1=O` as well?
0.75

Would you mind doing `CC[C@@H]1C(=O)N(C)c2cnc(Nc3ccc(C(=O)NC4CCN(C)CC4)cc3OC)nc2N1C1CCCC1` as well?
3.54

Would you mind doing `N[C@@H]1CCCN(c2c(/C=C3\SC(=O)NC3=O)cccc2-c2ccccc2)C1` as well?
204

Would you mind doing `CC(=O)N(O)CCCCCNC(=O)CCC(=O)N(O)CCCCCNC(=O)CCC(=O)N(O)CCCCCN` as well?
1970

Would you mind doing `N#Cc1ccc(COC[C@H]2O[C@@H](n3c(NCc4ccc(Cl)c(Cl)c4)nc4c(N)ncnc43)[C@H](O)[C@@H]2O)cc1` as well?
1240

Would you mind doing `Cc1nc(=O)c2cc(CN(C)c3ccc(C(=O)N[C@@H](CCC(=O)O)C(=O)O)s3)ccc2[nH]1` as well?
11.2

Would you mind doing `CNC(=O)c1cccc(-c2ccc3c(N4CCOC[C@@H]4C)nc(N4CCOC[C@@H]4C)nc3n2)c1` as well?
119
